test system: EB2; assay: cells; assay type: functional, cell-based; conditions: Homo sapiens;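 further: growth inhibition of EB2 cells, read out with a cell viability assay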
Description: SANGER: Inhibition of human EB2 cell growth in a cell viability assay.
EXPERIMENTAL READOUT: IC50

Illustrative cases are given below, each with its answer.
{"COMPOUND": "CCC(=O)N1CCN(c2ccc(-n3c(=O)ccc4cnc5ccc(-c6cnc7ccccc7c6)cc5c43)cc2C(F)(F)F)CC1 [TORIN1]", "EXPERIMENTAL READOUT": "IC50", "RESULT": "> 1200 nM"}
{"COMPOUND": "C[C@]1(O)C[C@@H](c2nc(-c3ccc4ccc(-c5ccccc5)nc4c3)c3c(N)nccn32)C1 [LINSITINIB]", "EXPERIMENTAL READOUT": "IC50", "RESULT": "> 2560 nM"}

IN: Supply recorded IC50 for C=CCc1cccc(/C=N/NC(=O)CN2CCN(Cc3ccccc3)CC2)c1O [PAC-1] here.
OUT: > 2560 nM

---

system: KINGS-1; test: cells; format: functional, cell-based, Homo sapiens; details: Homo sapiens, KINGS-1;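 further: cell viability assay measuring suppression of KINGS-1 cell growth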
Description: SANGER: Inhibition of human KINGS-1 cell growth in a cell viability assay.
pIC50: −log10 of the molar value.
# maps each entry to its pIC50

Illustrative cases are given below, each with its answer.
{"COMPOUND": "C[C@]1(O)C[C@@H](c2nc(-c3ccc4ccc(-c5ccccc5)nc4c3)c3c(N)nccn32)C1", "RESULT": "< 5.59"}
{"COMPOUND": "Nc1ccn([C@@H]2O[C@H](CO)[C@@H](O)[C@@H]2O)c(=O)n1", "RESULT": "< 5.70"}
{"COMPOUND": "C=CCNC1=C2C[C@@H](C)C[C@H](OC)[C@H](O)[C@@H](C)/C=C(\\C)[C@H](OC(N)=O)[C@@H](OC)/C=C\\C=C(/C)C(=O)NC(=CC1=O)C2=O", "RESULT": 6.61}

IN: Supply recorded pIC50 for `CCC1=C[C@@H]2CN(C1)Cc1c([nH]c3ccccc13)[C@@](C(=O)OC)(c1cc3c(cc1OC)N(C)[C@H]1[C@@](O)(C(=O)OC)[C@H](OC(C)=O)[C@]4(CC)C=CCN5CC[C@]31[C@@H]54)C2` here.
OUT: < 7.19

IN: Supply recorded pIC50 for `CO[C@H]1C[C@@H]2CC[C@@H](C)[C@@](O)(O2)C(=O)C(=O)N2CCCC[C@H]2C(=O)O[C@H]([C@H](C)C[C@@H]2CC[C@@H](O)[C@H](OC)C2)CC(=O)[C@H](C)/C=C(\C)[C@@H](O)[C@@H](OC)C(=O)[C@H](C)C[C@H](C)/C=C/C=C/C=C/1C` here.
OUT: 7.29

---

# maps each entry to its pIC50
system: LU-139; assay: cells; assay type: functional, cell-based; details: Homo sapiens
Description: SANGER: Inhibition of human LU-139 cell growth in a cell viability assay.
pIC50: −log10 of the molar value.

Illustrative cases are given below, each with its answer.
{"SMILES INPUT": "COc1ccc(C2=N[C@@H](c3ccc(Cl)cc3)[C@@H](c3ccc(Cl)cc3)N2C(=O)N2CCNC(=O)C2)c(OC(C)C)c1", "pIC50": "< 5.10"}
{"SMILES INPUT": "C=CCc1cccc(/C=N/NC(=O)CN2CCN(Cc3ccccc3)CC2)c1O", "pIC50": "< 5.59"}
{"SMILES INPUT": "C=CCNC1=C2C[C@@H](C)C[C@H](OC)[C@H](O)[C@@H](C)/C=C(\\C)[C@H](OC(N)=O)[C@@H](OC)/C=C\\C=C(/C)C(=O)NC(=CC1=O)C2=O", "pIC50": "< 6.00"}
{"SMILES INPUT": "CCOc1nc(NC(=O)Cc2cc(OC)ccc2OC)cc(N)c1C#N", "pIC50": "< 5.00"}

IN: Supply recorded pIC50 for `COC(=O)CNC(=O)C(=O)OC` here.
OUT: 3.74

IN: Supply recorded pIC50 for `O=C(NOCC1CC1)c1ccc(F)c(F)c1Nc1ccc(I)cc1Cl` here.
OUT: < 5.00

IN: Supply recorded pIC50 for `Nc1ccn([C@@H]2O[C@H](CO)[C@@H](O)[C@@H]2O)c(=O)n1` here.
OUT: < 5.70

---

test system: A673; test: cells; format: functional, cell-based, Homo sapiens; conditions: Homo sapiens, A673;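 further: growth inhibition of human A673 cells, read out through a cell viability assay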
Description: SANGER: Inhibition of human A673 cell growth in a cell viability assay.
EXPERIMENTAL READOUT: IC50

{"COMPOUND": "CN(c1ncccc1CNc1nc(Nc2ccc3c(c2)CC(=O)N3)ncc1C(F)(F)F)S(C)(=O)=O [PF-00562271]", "RESULT": "> 2560 nM"}

IN: Supply recorded IC50 for `O=C1N=C(NCc2cccs2)S/C1=C\c1ccc2ncccc2c1` here.
OUT: > 5000 nM

IN: Supply recorded IC50 for C=CCNC1=C2C[C@@H](C)C[C@H](OC)[C@H](O)[C@@H](C)/C=C(\C)[C@H](OC(N)=O)[C@@H](OC)/C=C\C=C(/C)C(=O)NC(=CC1=O)C2=O [TANESPIMYCIN] here.
OUT: > 1000 nM

IN: Supply recorded IC50 for CN(Cc1cnc2nc(N)nc(N)c2n1)c1ccc(C(=O)N[C@@H](CCC(=O)O)C(=O)O)cc1 [METHOTREXATE] here.
OUT: > 200 nM

IN: Supply recorded IC50 for COc1ccc(-c2ccc3c(N4CCOC[C@@H]4C)nc(N4CCOC[C@@H]4C)nc3n2)cc1CO [AZD-8055] here.
OUT: > 2000 nM

---

test system: RL95-2; assay: cells; type: functional, cell-based; settings: Homo sapiens;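 further: RL95-2 growth inhibition determined through a cell viability readout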
Description: SANGER: Inhibition of human RL95-2 cell growth in a cell viability assay.
EXPERIMENTAL READOUT: IC50 (µM)
The figure you give is taken to be in µM; do not add the unit.

{"SMILES INPUT": "COC(=O)CNC(=O)C(=O)OC", "ASSAYED SYSTEM": "RL95-2", "IC50 [µM]": 3590}

Moving on to the next compound.
IN: Supply recorded IC50 for `CN1CCN(CCOc2cc(OC3CCOCC3)c3c(Nc4c(Cl)ccc5c4OCO5)ncnc3c2)CC1` here.
OUT: 1.67

---

# maps each entry to its pIC50
tested on: KM12; test: cells; format: functional, cell-based, Homo sapiens; details: Homo sapiens, KM12
Description: SANGER: Inhibition of human KM12 cell growth in a cell viability assay.
pIC50: −log10 of the molar value.

IN: Find pIC50 for Cc1cc([C@@H](C)Nc2ccccc2C(=O)O)c2nc(N3CCOCC3)cc(=O)n2c1 [AZD-6482] on KM12 and write it down.
OUT: < 5.29

---

# maps each entry to its IC50
system: EW-11; test: cells; format: functional, cell-based, Homo sapiens; conditions: Homo sapiens, EW-11;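 further: growth inhibition of human EW-11 cells, measured with a cell viability assay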
Description: SANGER: Inhibition of human EW-11 cell growth in a cell viability assay.
The figure you give is taken to be in µM; do not add the unit.

Illustrative cases are given below, each with its answer.
{"MOLECULE": "C[C@]1(O)C[C@@H](c2nc(-c3ccc4ccc(-c5ccccc5)nc4c3)c3c(N)nccn32)C1 [LINSITINIB]", "NUMBER": 0.284}
{"MOLECULE": "CC(=O)O[C@@]12CO[C@@H]1C[C@H](O)[C@@]1(C)C(=O)[C@H](O)C3=C(C)[C@@H](OC(=O)[C@H](O)[C@@H](NC(=O)OC(C)(C)C)c4ccccc4)C[C@@](O)([C@@H](OC(=O)c4ccccc4)[C@H]21)C3(C)C [DOCETAXEL]", "NUMBER": 0.00169}

IN: Supply recorded IC50 for `COC(=O)CNC(=O)C(=O)OC` here.
OUT: 1050

---

system: KP-4; test: cells; assay type: functional, cell-based, Homo sapiens; conditions: Homo sapiens, KP-4; read-out: IC50
Description: SANGER: Inhibition of human KP-4 cell growth in a cell viability assay.
pIC50: −log10 of the molar value.
# maps each entry to its pIC50

{"COMPOUND": "CN(c1ncccc1CNc1nc(Nc2ccc3c(c2)CC(=O)N3)ncc1C(F)(F)F)S(C)(=O)=O [PF-00562271]", "EXPERIMENTAL READOUT": "pIC50", "RESULT": "< 5.59"}
{"COMPOUND": "Cn1cc(C2=C(c3ccc(Cl)cc3Cl)C(=O)NC2=O)c2ccccc21 [SB-216763]", "EXPERIMENTAL READOUT": "pIC50", "RESULT": "< 5.00"}
{"COMPOUND": "Nc1ccn([C@@H]2O[C@H](CO)[C@@H](O)[C@@H]2O)c(=O)n1 [CYTARABINE]", "EXPERIMENTAL READOUT": "pIC50", "RESULT": 6.27}
{"COMPOUND": "O=C(NOCC1CC1)c1ccc(F)c(F)c1Nc1ccc(I)cc1Cl [CI-1040]", "EXPERIMENTAL READOUT": "pIC50", "RESULT": "< 5.00"}
{"COMPOUND": "CCOc1nc(NC(=O)Cc2cc(OC)ccc2OC)cc(N)c1C#N", "EXPERIMENTAL READOUT": "pIC50", "RESULT": "< 5.00"}

IN: Supply recorded pIC50 for C[C@]1(O)C[C@@H](c2nc(-c3ccc4ccc(-c5ccccc5)nc4c3)c3c(N)nccn32)C1 [LINSITINIB] here.
OUT: < 5.59

IN: Supply recorded pIC50 for C=CCNC1=C2C[C@@H](C)C[C@H](OC)[C@H](O)[C@@H](C)/C=C(\C)[C@H](OC(N)=O)[C@@H](OC)/C=C\C=C(/C)C(=O)NC(=CC1=O)C2=O [TANESPIMYCIN] here.
OUT: 7.32

IN: Supply recorded pIC50 for CCC1=C[C@@H]2CN(C1)Cc1c([nH]c3ccccc13)[C@@](C(=O)OC)(c1cc3c(cc1OC)N(C)[C@H]1[C@@](O)(C(=O)OC)[C@H](OC(C)=O)[C@]4(CC)C=CCN5CC[C@]31[C@@H]54)C2 [VINORELBINE] here.
OUT: 8.57
